# tested target: CLK4 (Homo sapiens, UniProt Q9HAZ1)
# Construct: Full-length, terminal NanoLuc fusion
# Sequence (Q9HAZ1 whole entry, the tested form may be a part): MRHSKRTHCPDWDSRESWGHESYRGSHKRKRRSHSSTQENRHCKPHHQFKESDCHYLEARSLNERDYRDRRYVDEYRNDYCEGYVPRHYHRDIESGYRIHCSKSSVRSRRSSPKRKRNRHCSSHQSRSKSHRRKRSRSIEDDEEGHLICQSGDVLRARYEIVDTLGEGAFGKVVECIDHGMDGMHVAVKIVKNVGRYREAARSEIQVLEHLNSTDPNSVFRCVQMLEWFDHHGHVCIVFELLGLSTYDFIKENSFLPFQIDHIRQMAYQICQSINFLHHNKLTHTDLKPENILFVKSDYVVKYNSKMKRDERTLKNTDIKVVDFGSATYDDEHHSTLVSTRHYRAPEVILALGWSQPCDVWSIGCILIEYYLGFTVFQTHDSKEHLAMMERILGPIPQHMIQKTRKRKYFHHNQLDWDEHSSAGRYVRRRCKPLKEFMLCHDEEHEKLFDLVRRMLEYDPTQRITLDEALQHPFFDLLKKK
# assay summary: NanoBRET target engagement (tracer displacement) in intact HEK293T cells
assay metric: EC50 (nM)
Numeric only. Scale: nM

Identify measured EC50 corresponding to Cc1nccc(-c2cn(Cc3ccccc3)c3cnccc23)n1 119

###

# tested target: DYRK1A (Homo sapiens)
# Construct: Full-length, terminal NanoLuc fusion
# assay summary: NanoBRET target engagement (tracer displacement) in intact HEK293T cells
assay metric: EC50 (µM)
Give just the number in µM; leave the unit off.

Given Cc1nccc(-c2cn(Cc3ccccc3)c3cnccc23)n1 , respond with its EC50. 3.8

###

# tested target: CLK2 (Homo sapiens)
# Construct: Full-length, terminal NanoLuc fusion
# Sequence (P49760 whole entry, the tested form may be a part): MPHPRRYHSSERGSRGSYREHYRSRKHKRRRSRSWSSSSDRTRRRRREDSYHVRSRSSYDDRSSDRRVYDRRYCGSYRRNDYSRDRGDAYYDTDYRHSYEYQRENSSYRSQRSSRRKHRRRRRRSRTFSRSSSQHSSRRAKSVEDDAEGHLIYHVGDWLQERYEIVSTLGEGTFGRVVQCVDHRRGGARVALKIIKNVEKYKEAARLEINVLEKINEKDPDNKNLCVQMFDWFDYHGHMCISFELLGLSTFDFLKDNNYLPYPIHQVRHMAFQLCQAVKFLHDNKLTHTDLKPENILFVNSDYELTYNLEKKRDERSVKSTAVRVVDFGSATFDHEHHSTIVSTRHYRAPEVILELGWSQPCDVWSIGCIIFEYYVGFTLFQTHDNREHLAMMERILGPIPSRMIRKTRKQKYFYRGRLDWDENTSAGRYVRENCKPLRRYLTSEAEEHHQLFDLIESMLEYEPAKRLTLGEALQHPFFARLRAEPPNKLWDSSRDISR
# assay summary: NanoBRET target engagement (tracer displacement) in intact HEK293T cells
assay metric: EC50 (µM)
Numbers only here, please. The scale is µM.

Look up CLK2 (Homo sapiens) data: EC50 of Cc1nccc(-c2cn(Cc3ccccc3)c3cnccc23)n1 , then report it. 5

###

# tested target: CLK1 (Homo sapiens, UniProt P49759)
# Construct: Full-length, terminal NanoLuc fusion
# Sequence (P49759 whole entry, the tested form may be a part): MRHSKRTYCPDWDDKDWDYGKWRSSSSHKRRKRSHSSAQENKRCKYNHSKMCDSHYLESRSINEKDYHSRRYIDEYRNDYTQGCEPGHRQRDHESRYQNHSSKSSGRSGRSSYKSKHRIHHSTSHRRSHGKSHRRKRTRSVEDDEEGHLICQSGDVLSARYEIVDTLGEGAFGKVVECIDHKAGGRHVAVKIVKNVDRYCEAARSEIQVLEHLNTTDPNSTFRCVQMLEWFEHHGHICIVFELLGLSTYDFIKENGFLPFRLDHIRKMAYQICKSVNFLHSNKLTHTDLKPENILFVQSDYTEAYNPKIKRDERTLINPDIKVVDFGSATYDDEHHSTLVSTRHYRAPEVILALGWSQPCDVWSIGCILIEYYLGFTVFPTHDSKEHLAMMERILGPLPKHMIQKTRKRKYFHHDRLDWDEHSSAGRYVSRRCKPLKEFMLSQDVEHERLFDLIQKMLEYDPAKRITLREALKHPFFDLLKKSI
# assay summary: NanoBRET target engagement (tracer displacement) in intact HEK293T cells
assay metric: EC50
Number plus unit, in that order.

Recall and state the measured EC50 for Cc1nccc(-c2cn(Cc3ccccc3)c3cnccc23)n1 [AZ-DYRK1B-33] . 0.299 µM

Origin of the recorded values: paper PMC11846820
